Numbers sourced from patent US20220288052A1.

assayText: Exposure and tissue distribution after 14 days repeat dosing, rat
Assay type: in vivo
experimentalContext: Wistar, rat, brain/plasma, sc; Female rats, 10 mg/kg s.c. 14 days, 2 h post last dose; read-out: Brain/plasma ratio
readout: Kp at 2 h

# query: Kp at 2 h of entry `O=c1ccc2ccc(O[C@@H]3C[C@H]4CC[C@@H](C3)N4)cc2o1`
7

###

assayText: Exposure and tissue distribution after 14 days repeat dosing, mouse
Assay type: in vivo
experimentalContext: NMRI, mouse, in vivo, po; Male mice, 15 mg/kg p.o. 14 days, 2 h post last dose; read-out: Liver/plasma ratio
readout: Kp at 2 h

# query: Kp at 2 h of entry O=c1ccc2ccc(O[C@@H]3C[C@H]4CC[C@@H](C3)N4)cc2o1 [Compound (I)]
28
